details: human gut metagenome, 24 h, 2 µM; also: call rule not given here
endpointName: Bacterial Biotransformation

[[record]]
compound = "CC1=C(CC(=O)O)c2cc(F)ccc2/C1=C\\c1ccc([S+](C)[O-])cc1 (centres undefined)"
endpointname = "Bacterial Biotransformation"
reading = "Compound metabolized"

[[record]]
compound = "O=C(NC(Cc1cc(=O)[nH]c2ccccc12)C(=O)O)c1ccc(Cl)cc1 (centres undefined) [REBAMIPIDE]"
endpointname = "Bacterial Biotransformation"
reading = "Compound NOT metabolized"

[[record]]
compound = "CN1CCN(C2=Nc3ccccc3Oc3ccc(Cl)cc32)CC1.O=C(O)CCC(=O)O [LOXAPINE SUCCINATE]"
endpointname = "Bacterial Biotransformation"
reading = "Compound NOT metabolized"

[[record]]
compound = "C[N+]12CCC(CC1)C(OC(=O)C(O)(c1ccccc1)c1ccccc1)C2.[Br-] (centres undefined) [CLIDINIUM BROMIDE]"
endpointname = "Bacterial Biotransformation"
reading = "Compound metabolized"

